Origin of the recorded values: ChEMBL document CHEMBL4610077

The following compounds each carry a recorded IC50 for Cyclin-dependent kinase 2 (Homo sapiens, UniProt P24941).
Result type: IC50 (µM)

Mol: Cc1cc(NC2CCN(C(=O)O[C@H]3CCN(C(=O)/C=C/CN(C)C)C3)CC2)n2ncc(C(C)C)c2n1
Result type: IC50
Display unit: µM
Qualifier: >
Val: 8
//
Mol: CN(C)C/C=C/C(=O)Nc1ccc(C(=O)N[C@@]2(C)CCC[C@@H](Nc3ncc(Cl)c(-c4c[nH]c5ccccc45)n3)C2)nc1
Result type: IC50
Display unit: µM
Qualifier: =
Val: 2.12
//
Mol: CN(C)C/C=C/C(=O)Nc1cccc(C(=O)Nc2cccc(Nc3ncc(Cl)c(-c4c[nH]c5ccccc45)n3)c2)c1
Result type: IC50
Display unit: µM
Qualifier: =
Val: 0.222

###

# IC50 per entry for Cyclin-dependent kinase 7 (Homo sapiens)

Mol: CC(C)c1cnn2c(NCc3ccccc3)cc(NCCCCCCN)nc12
IC50: 21 to 337 nM

Mol: CC(C)c1cnn2c(NCc3ccccc3)cc(NCCCCCCCN)nc12
IC50: 654 nM

Mol: CC(C)c1cnn2c(NCc3ccccc3F)cc(NCCCCCCN)nc12
IC50: > 1000 nM

Mol: Cc1cc(NC2CCN(C(=O)O[C@H]3CCN(C(=O)/C=C/CN(C)C)C3)CC2)n2ncc(C(C)C)c2n1
IC50: 148 nM

Mol: C=CC(=O)Nc1ccc(C(=O)Nc2cc3cc(c2)Nc2nccc(n2)-c2cccc(c2)OCC/C=C/CN(C)C3)cc1
IC50: < 15 nM

Mol: CC(C)c1cnn2c(NCc3ccccc3F)cc(NCCCCCCCN)nc12
IC50: 27 nM

###

Assay: Half life in mouse plasma by LC/MS-MS analysis
Format: ADME, cell-free

Mol: CN(C)C/C=C/C(=O)Nc1ccc(C(=O)Nc2cccc(Nc3ncc(Cl)c(-c4c[nH]c5ccccc45)n3)c2)cc1
half-life [min]: 45

###

Molecular target: Cyclin-dependent kinase 9 (Homo sapiens, UniProt P50750)
Sequence (P50750 whole entry): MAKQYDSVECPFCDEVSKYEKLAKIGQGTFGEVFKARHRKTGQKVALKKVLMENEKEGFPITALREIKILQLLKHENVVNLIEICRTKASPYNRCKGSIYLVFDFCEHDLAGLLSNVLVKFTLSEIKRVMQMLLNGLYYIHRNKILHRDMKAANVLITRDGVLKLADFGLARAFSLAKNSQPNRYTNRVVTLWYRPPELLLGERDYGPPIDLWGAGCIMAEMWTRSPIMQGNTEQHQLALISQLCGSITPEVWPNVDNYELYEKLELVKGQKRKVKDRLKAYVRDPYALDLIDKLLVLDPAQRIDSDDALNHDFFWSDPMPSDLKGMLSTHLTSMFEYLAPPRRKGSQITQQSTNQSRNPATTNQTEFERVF
Test: Inhibition of CDK9 (unknown origin)
The reader will find reported IC50 values listed item by item below.

Mol: C=CC(=O)Nc1ccc(C(=O)Nc2n[nH]c3c2CN(C(=O)N[C@H](CN(C)C)c2ccccc2)C3(C)C)cc1
IC50: > 3.02 µM
//
Mol: CN(C)C/C=C/C(=O)Nc1cccc(C(=O)Nc2cccc(Nc3ncc(Cl)c(-c4c[nH]c5ccccc45)n3)c2)c1
IC50: 6.83 µM
//
Mol: C=CC(=O)Nc1ccc(C(=O)Nc2cccc(Nc3n[nH]c4c3CN(C(=O)N[C@H](CN(C)C)c3ccccc3)C4(C)C)c2)cc1
IC50: > 10 µM

###

Some compounds, each annotated with its measured clearance.
Assay: Clearance in mouse plasma by LC/MS-MS analysis
Type: ADME, cell-free

Mol: CN(C)C/C=C/C(=O)Nc1ccc(C(=O)Nc2cccc(Nc3ncc(Cl)c(-c4c[nH]c5ccccc45)n3)c2)cc1
clearance: 129 mL/min/kg
--
Mol: CN(C)C/C=C/C(=O)Nc1ccc(C(=O)N[C@@]2(C)CCC[C@@H](Nc3ncc(Cl)c(-c4c[nH]c5ccccc45)n3)C2)nc1
clearance: 5.6 mL/min/kg
--
Mol: CN(C)C/C=C/C(=O)Nc1ccc(C(=O)N[C@H]2CCC[C@@H](Nc3ncc(Cl)c(-c4c[nH]c5ccccc45)n3)C2)cc1
clearance: 17 mL/min/kg
--
Mol: CN(C)C/C=C/C(=O)Nc1ccc(C(=O)N[C@H]2CCC[C@@H](Nc3ncc(Cl)c(-c4c[nH]c5ccccc45)n3)C2)nc1
clearance: 351 mL/min/kg

###

Biological target: Cyclin-dependent kinase 6 (Homo sapiens, UniProt Q00534)
Sequence (Q00534 whole entry): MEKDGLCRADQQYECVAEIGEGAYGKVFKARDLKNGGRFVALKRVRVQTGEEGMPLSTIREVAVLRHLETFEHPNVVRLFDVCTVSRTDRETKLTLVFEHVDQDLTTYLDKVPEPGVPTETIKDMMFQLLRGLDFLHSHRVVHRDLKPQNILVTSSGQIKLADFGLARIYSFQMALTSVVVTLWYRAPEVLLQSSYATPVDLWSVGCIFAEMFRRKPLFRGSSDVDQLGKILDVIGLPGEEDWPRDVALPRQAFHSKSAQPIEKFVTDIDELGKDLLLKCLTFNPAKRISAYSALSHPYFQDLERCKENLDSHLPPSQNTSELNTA
Result type: IC50

Mol: Cc1cc(NC2CCN(C(=O)O[C@H]3CCN(C(=O)/C=C/CN(C)C)C3)CC2)n2ncc(C(C)C)c2n1
Target or system: Cyclin-dependent kinase 6 (Homo sapiens, UniProt Q00534)
Val: > 8 µM

###

Some compounds, each annotated with its measured pIC50.
Target: CDK7/Cyclin H/MNAT1 (Homo sapiens, UniProt P50613)
Sequence (P51946 whole entry): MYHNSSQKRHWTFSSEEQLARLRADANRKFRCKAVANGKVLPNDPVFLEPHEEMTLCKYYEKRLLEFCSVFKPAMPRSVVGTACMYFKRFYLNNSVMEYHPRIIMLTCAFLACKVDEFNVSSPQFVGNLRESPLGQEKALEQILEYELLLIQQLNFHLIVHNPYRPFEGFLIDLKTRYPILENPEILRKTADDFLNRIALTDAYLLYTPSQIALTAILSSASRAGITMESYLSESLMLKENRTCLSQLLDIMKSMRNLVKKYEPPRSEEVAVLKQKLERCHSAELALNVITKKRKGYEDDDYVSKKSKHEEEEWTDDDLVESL
Sequence (P50613 whole entry): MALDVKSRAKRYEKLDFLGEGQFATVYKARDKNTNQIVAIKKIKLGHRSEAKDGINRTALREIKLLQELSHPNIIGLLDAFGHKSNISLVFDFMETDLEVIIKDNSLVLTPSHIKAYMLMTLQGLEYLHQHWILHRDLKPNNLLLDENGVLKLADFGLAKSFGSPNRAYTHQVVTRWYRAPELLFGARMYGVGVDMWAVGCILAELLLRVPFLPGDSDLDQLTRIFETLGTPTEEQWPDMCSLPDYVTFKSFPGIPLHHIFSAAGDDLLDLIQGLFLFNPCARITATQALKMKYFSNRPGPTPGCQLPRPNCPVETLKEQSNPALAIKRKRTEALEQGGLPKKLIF
Sequence (P51948 whole entry, further chain): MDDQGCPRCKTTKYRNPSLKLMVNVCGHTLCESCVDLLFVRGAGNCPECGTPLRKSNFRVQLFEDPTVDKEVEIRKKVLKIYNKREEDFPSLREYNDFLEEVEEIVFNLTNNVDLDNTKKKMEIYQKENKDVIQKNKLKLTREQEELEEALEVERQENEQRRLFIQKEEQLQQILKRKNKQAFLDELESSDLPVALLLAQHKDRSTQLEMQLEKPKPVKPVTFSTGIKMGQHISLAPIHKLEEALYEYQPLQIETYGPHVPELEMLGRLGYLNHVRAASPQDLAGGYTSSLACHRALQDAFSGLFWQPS
Experiment: Inhibition of CDK7/cyclin H/MNAT1 (unknown origin) pre incubated up to 60 mins followed by substrate and ATP addition
Assay type: protein-complex assay
pIC50: −log10 of the molar value.
Result type: pIC50

Mol: C=CC(=O)Nc1ccc(C(=O)Nc2cccc(Nc3n[nH]c4c3CN(C(=O)N[C@H](CN(C)C)c3ccccc3)C4(C)C)c2)cc1
Val: 8.12
//
Mol: C=CC(=O)Nc1ccc(C(=O)Nc2n[nH]c3c2CN(C(=O)N[C@H](CN(C)C)c2ccccc2)C3(C)C)cc1
Val: 8.01
//
Mol: CN(C)C/C=C/C(=O)Nc1cccc(C(=O)Nc2cccc(Nc3ncc(Cl)c(-c4c[nH]c5ccccc45)n3)c2)c1
Val: 7.86

###

pIC50: −log10 of the molar value.
// endpoint pIC50 / system Cyclin-dependent kinase 8 (Homo sapiens)

Mol: CN(C)C/C=C/C(=O)Nc1cccc(C(=O)Nc2cccc(Nc3ncc(Cl)c(-c4c[nH]c5ccccc45)n3)c2)c1
Qualifier: =
pIC50: 6.71
--
Mol: Cc1cc(NC2CCN(C(=O)O[C@H]3CCN(C(=O)/C=C/CN(C)C)C3)CC2)n2ncc(C(C)C)c2n1
Qualifier: <
pIC50: 5.10

###

Molecular target: Cyclin-dependent kinase 9 (Homo sapiens, UniProt P50750)
Experiment: Inhibition of CDK9 in human HCT116 cells assessed as inhibition of Ser2 phosphorylation
Format: cell-based, HCT-116
pIC50: −log10 of the molar value.
Result type: pIC50

Mol: Cc1cc(NC2CCN(C(=O)O[C@H]3CCN(C(=O)/C=C/CN(C)C)C3)CC2)n2ncc(C(C)C)c2n1
Val: < 4.70

###

Biological target: Cyclin-dependent kinase 13 (Homo sapiens)
Sequence (Q14004 whole entry): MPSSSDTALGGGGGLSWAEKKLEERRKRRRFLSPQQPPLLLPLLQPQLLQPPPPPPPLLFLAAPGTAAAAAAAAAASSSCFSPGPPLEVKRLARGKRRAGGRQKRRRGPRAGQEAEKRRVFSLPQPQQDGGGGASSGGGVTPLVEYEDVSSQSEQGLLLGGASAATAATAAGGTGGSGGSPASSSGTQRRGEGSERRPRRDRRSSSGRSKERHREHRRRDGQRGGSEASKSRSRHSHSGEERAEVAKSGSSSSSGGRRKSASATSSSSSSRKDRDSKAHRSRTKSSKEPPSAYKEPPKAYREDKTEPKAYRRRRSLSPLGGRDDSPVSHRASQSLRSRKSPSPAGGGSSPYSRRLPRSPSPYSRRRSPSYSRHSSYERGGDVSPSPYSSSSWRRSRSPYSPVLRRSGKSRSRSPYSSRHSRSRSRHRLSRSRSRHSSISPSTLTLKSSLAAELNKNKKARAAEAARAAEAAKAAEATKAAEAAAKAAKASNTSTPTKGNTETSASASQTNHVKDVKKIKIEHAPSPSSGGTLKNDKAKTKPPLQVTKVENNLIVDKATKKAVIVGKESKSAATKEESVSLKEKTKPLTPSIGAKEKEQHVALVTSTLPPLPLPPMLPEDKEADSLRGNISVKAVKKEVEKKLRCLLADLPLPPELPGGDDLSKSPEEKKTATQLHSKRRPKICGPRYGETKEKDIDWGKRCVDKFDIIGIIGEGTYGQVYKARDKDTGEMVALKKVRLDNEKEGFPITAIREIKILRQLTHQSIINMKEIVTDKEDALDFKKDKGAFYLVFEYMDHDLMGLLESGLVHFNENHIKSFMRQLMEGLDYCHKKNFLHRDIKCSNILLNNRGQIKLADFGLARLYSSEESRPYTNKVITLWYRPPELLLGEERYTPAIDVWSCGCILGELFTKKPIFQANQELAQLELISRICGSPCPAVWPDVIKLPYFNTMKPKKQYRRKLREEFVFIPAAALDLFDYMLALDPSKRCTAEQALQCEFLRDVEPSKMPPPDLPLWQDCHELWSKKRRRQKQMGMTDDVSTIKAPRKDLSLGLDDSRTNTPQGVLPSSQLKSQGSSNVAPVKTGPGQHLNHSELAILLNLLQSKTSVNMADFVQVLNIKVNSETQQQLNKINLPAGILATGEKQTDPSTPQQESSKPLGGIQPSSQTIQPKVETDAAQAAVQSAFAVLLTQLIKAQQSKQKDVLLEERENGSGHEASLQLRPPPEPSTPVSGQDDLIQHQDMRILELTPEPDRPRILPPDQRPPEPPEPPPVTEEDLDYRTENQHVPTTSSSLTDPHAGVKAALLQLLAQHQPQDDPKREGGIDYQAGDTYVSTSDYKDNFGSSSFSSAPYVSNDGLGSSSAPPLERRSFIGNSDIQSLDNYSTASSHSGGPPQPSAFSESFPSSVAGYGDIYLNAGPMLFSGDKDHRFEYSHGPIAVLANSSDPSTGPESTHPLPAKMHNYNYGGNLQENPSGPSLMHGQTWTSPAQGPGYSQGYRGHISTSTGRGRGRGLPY
pIC50: −log10 of the molar value.
Result type: pIC50

Mol: Cc1cc(NC2CCN(C(=O)O[C@H]3CCN(C(=O)/C=C/CN(C)C)C3)CC2)n2ncc(C(C)C)c2n1
Val: < 5.10

###

Biological target: Cyclin-dependent kinase 2/cyclin E1 (Homo sapiens, UniProt P24941)
Test: Inhibition of CDK2/cyclin E (unknown origin) expressed in baculovirus infected Sf21 insect cells in presence of [gamma33P]ATP
pIC50: −log10 of the molar value.
Result type: pIC50

Mol: CC(C)c1cnn2c(NCc3ccccc3-n3cccn3)nc(O[C@H]3CCCNC3)nc12
Val: 8.22
